Each recorded value in this set is attributed to paper PMC10786891.

# experimental system: T1, EsCas13d, nuclease-dead (Eubacterium siraeum, UniProt B0MS50, R295A;H300A;R849A;H854A)
# T1 sequence: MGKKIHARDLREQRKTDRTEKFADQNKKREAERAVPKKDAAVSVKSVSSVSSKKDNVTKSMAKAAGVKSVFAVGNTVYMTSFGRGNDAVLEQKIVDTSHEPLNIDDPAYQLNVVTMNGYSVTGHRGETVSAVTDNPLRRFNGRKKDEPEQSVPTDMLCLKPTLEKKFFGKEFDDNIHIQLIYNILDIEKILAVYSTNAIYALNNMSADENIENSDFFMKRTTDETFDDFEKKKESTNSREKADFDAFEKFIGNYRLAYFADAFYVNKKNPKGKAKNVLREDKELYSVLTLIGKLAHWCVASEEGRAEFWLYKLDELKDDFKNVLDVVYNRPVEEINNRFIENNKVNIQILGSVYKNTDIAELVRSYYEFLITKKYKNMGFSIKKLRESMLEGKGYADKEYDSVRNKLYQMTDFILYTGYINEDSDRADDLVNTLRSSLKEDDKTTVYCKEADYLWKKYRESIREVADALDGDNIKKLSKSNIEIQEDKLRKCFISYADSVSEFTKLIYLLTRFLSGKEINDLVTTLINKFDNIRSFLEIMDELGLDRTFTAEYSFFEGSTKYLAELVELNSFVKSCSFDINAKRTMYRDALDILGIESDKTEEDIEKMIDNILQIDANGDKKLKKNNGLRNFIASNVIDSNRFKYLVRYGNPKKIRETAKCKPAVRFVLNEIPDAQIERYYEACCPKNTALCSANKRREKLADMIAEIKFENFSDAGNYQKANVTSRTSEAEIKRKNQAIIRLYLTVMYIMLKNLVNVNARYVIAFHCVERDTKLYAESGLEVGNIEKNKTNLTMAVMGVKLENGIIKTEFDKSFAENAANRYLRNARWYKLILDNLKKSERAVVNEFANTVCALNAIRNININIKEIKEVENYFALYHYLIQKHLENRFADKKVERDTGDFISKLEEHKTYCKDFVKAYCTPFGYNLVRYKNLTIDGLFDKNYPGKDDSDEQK
# method: crRNA (strand 1, pre-loaded); Mg2+; 40 mM Tris-HCl pH 7.5, 150 mM NaCl, 6 mM MgCl2, 1 mM DTT, 0.1% Tween-20, 0.2 mg/ml BSA; 25 C; 10 min per concentration, then washed
# measurement context: tags: His6-TwinStrep-SUMO cleaved; N-terminal SNAP kept (SNAP-Surface 488); label: 3' end held by stalled T7 RNA polymerase
observation type: pKd
// pKd: -log10(molar conc.)

The recorded pKd for entry target 1 U8A,G17A (mixed) RNA 1: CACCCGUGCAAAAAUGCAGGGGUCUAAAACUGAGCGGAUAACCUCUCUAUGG RNA 2: GGGAAUGGAUCCACAUCUACGAAUUCGUACCAUAAAGAGGUUAACCGCUCACCGAGAUCGGAAGAGCACACGU equals 7.04

pKd in this record for target 1 U8G,G15A (mixed) RNA 1: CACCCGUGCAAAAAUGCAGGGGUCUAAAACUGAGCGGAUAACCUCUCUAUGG RNA 2: GGGAAUGGAUCCACAUCUACGAAUUCGUACCAUAGAAAGGUUAGCCGCUCACCGAGAUCGGAAGAGCACACGU : 7.25

Value of measured pKd for the entry target 1 insU 3' of 18,insU 3' of 2 (mixed) RNA 1: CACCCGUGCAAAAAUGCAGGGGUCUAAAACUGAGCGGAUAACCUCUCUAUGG RNA 2: GGGAAUGGAUCCACAUCUACGAAUUCGUACCAUAUGAGAGGUUAUCCGCUCUACCGAGAUCGGAAGAGCACACGU : 7.59

Record target 1 U11G,A14G (mixed) RNA 1: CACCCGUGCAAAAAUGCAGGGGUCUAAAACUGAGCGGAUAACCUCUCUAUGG RNA 2: GGGAAUGGAUCCACAUCUACGAAUUCGUACCAUAGAGGGGGUAUCCGCUCACCGAGAUCGGAAGAGCACACGU . Reported pKd: 7.66
